- procedure-summary: Cycloheximide Counterscreen for Small Molecule Inhibitors of Shiga Toxin; further: read at 38.3 µM for the half of the compounds with a filed dose
- stated-conditions: cell reporter, cycloheximide protein synthesis inhibition counterscreen
Screen size: about 300,000 compounds; about 37,000 (12%) were called active. No stated cut-off is given here; in the data, active means max response mostly above about 13% (no sharp cut-off); inactive means mostly below about 14%. Many of the other results were omitted from the sample, so actives are more common in it than they were.
Tick one outcome: active, inactive

Q: Look up the recorded call for COC(=O)c1cc2occc2n1Cc1nc(-c2ccccc2C)oc1C in this test.
A: inactive

Q: Next up: O=C(O)CCCn1c(=O)c2cccn2c2ccc(F)cc21
A: inactive

Q: Next up: O=C1c2ccccc2C(=O)C1c1ccccc1
A: active

Q: Next up: Cc1ccc(N(C(=O)Cc2cccs2)C(C(=O)NCC2CCCO2)c2ccncc2)cc1 (configuration not stated)
A: active

Q: Next up: CCN(CC)C(=O)Oc1ccc(OC(=O)N(CC)CC)cc1
A: inactive

Q: Next up: Cc1ccnc(N2C(=O)c3ccccc3C2Nc2ccc3c(c2)OCCO3)c1 (configuration not stated)
A: active

Q: Next up: CCN(CC)CCN1C(=O)C(=O)/C(=C(/O)c2ccc(OC)c(OC)c2)C1c1ccccn1 (configuration not stated)
A: active

Q: Next up: CC(C)(C)c1cc(NC(=O)NN2CCOCC2)nn1-c1c(Cl)cc(Cl)cc1Cl
A: inactive

Q: Next up: Cc1cccc(N(C(=O)Cc2cccs2)C(C(=O)NCc2ccco2)c2ccncc2)c1 (configuration not stated)
A: inactive

Q: Next up: O=C1c2ccccc2C(=O)C1c1ccccc1F
A: inactive

Q: Next up: CN1CCN(/N=C2/C(=O)Nc3ccc([N+](=O)[O-])cc32)CC1
A: inactive

Q: Next up: COc1ccc(CNC(=O)C2CCN(S(=O)(=O)c3ccc(SC)cc3)CC2)cc1
A: inactive

Q: Next up: O=C(NCC(=O)N(c1ccccc1)C(C(=O)NCC1CCCO1)c1ccccc1)c1cccs1 (configuration not stated)
A: inactive

Q: Next up: Cc1nn(Cc2ccc(C(=O)N3N=C(C(F)F)CC3(O)C(F)F)cc2)c(C)c1[N+](=O)[O-] (configuration not stated)
A: inactive

Q: Next up: COc1ccccc1C1/C(=C(/O)c2ccc(C)cc2)C(=O)C(=O)N1Cc1ccco1 (configuration not stated)
A: inactive

Q: Next up: COC(=O)c1cccc(C(=O)N2CCCC(Nc3ccc4c(c3)OCCO4)C2)c1 (configuration not stated)
A: inactive

Q: Next up: O=C1NC(c2ccccc2)Oc2ccccc21 (configuration not stated)
A: inactive

Q: Next up: COc1ccccc1C1/C(=C(/O)c2ccc(OC(C)C)cc2)C(=O)C(=O)N1c1cc(C)on1 (configuration not stated)
A: inactive

Q: Next up: O=C(NC1CCCCC1)C1c2ccccc2C(=O)N1Cc1ccco1 (configuration not stated)
A: inactive

Q: Next up: COc1ccc(-c2nc3n(c(=O)c2C#N)CCS3)c(OC)c1
A: inactive

Q: Next up: COc1ccccc1N1CCN(S(=O)(=O)c2ccc3c(c2)NC(=O)CS3)CC1
A: inactive

Q: Next up: CCOC(=O)c1ccc(N=C2SC(C(=O)NC)CC(=O)N2CCc2ccccc2)cc1 (configuration not stated)
A: inactive

----------
- procedure-summary: Cycloheximide Counterscreen for Small Molecule Inhibitors of Shiga Toxin; further: read at 38.3 µM for the half of the compounds with a filed dose
- stated-conditions: cell reporter, cycloheximide protein synthesis inhibition counterscreen
In all, about 300,000 compounds went through this assay and about 37,000 (12%) were called active. Rule as the data show it: active = max response mostly above about 13% (no sharp cut-off); inactive = mostly below about 14%. This excerpt belongs to a sample that is enriched for actives.
Tick one outcome: yes (1) = active, no (0) = inactive

Q: Look up the recorded call for Cc1ccc(C(=O)Oc2ccc(C(=S)N3CCOCC3)cc2)cc1 in this test.
A: no (0)

Q: Next up: COC(=O)c1ccc(S(=O)(=O)NCc2ccccc2)n1C
A: no (0)

Q: Next up: CCCOC(=O)c1[nH]c2c(c1C)C(=O)CC(c1cc(OC)c(OC)c(OC)c1)C2 (configuration not stated)
A: no (0)

Q: Next up: Cc1ccc(SCC(CC(C)C)N2CCN(CCc3ccccc3)CCC2=O)cc1 (configuration not stated)
A: yes (1)

Q: Next up: O=C(NCCc1c[nH]c2ccccc12)C(=O)NCC1CCCO1 (configuration not stated)
A: no (0)

Q: Next up: CC1CC(C)CN(C(=O)C2CC(=O)N(c3ccc(F)cc3)C2)C1 (configuration not stated)
A: no (0)

Q: Next up: COc1cccc(OCCOc2cccc(/C=N/n3cnnc3)c2)c1
A: yes (1)

Q: Next up: Cc1ccc(C(=O)N/C(=C/c2ccco2)C(=O)NCCc2c[nH]c3ccccc23)cc1C
A: yes (1)

Q: Next up: O=C(NCCc1c[nH]c2ccccc12)c1cccc(Br)c1
A: yes (1)

Q: Next up: COc1cccc(C(=O)NCCSc2ccc(Br)cc2)c1
A: no (0)

Q: Next up: O=C(NCCc1c[nH]c2ccccc12)c1cc2ccccc2oc1=O
A: yes (1)

Q: Next up: COc1ccccc1CC(=O)NCCc1c[nH]c2ccccc12
A: no (0)

Q: Next up: COc1ccc(N2CCN(C(=O)CNC(=O)c3ccc(Br)o3)CC2)cc1
A: no (0)

Q: Next up: C=CCn1c2ccccc2c2nnc(SCc3[nH]c(=O)[nH]c3C(=O)CCCCC(=O)OCC)nc21
A: no (0)

Q: Next up: COCc1ccc(C(=O)NC2CC(C)(C)Cc3c2cnn3-c2ccc(C)cc2)o1 (configuration not stated)
A: no (0)

Q: Next up: Cc1ccc(Nc2nc(CSc3nnc(-c4ccncc4)n3-c3ccccc3C)cs2)cc1
A: no (0)

Q: Next up: Cc1ccc(S(=O)(=O)N(Cc2ccc(Cl)cc2)c2ccccc2C(=O)NCc2cccnc2)cc1
A: no (0)

Q: Next up: O=C(/C=C/c1ccc(F)cc1)NC(=S)NNC(=O)c1cccnc1
A: no (0)

Q: Next up: CSc1nc(-c2ccco2)nn1C(=O)c1ccccc1Cl
A: no (0)

Q: Next up: CN(c1ccccc1)S(=O)(=O)c1ccc(Cl)c(C(=O)NCCc2c[nH]c3ccccc23)c1
A: no (0)

Q: Next up: Cc1cc(C)cc(NC(=S)NCCc2c[nH]c3ccccc23)c1
A: no (0)

Q: Next up: COc1ccc(NC(=O)N2CCCC2C(=O)NCc2ccccc2Cl)cc1 (configuration not stated)
A: no (0)
